# Test Method Notes: recombinant UMI read abundance after kanamycin selection (control-corrected) (log10(CPM+1)); higher = more efficient recombination; extreme values may be limits of the assay; sequences stand for … in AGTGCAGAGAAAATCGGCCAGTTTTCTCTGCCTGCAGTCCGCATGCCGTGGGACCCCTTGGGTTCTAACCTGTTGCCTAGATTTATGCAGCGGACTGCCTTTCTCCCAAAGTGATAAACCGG…AGGTTGGTTTCACT; site = the 11-nt donor;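 note: IS621 bridge recombinase in Escherichia coli cells against a fixed T5 target plasmid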
Quick rule for you: recombinant UMI read abundance (log10) at 0.3 or higher means Criterion met, lower means Criterion not met.

Problem: Is it the case that GTAGTAGCATGGACCGGTTTTCCCGGTAATCCGTATTTGCG (site GTAGTCGCTCG) has recombinant UMI read abundance (log10) reaching or exceeding 0.3?
Result: Criterion met

Problem: Is it the case that GGAGCCCCATGGACCGGTTTTCCCGGTAATCCGTATTTGCG (site GGAGCCCCTCG) has recombinant UMI read abundance (log10) reaching or exceeding 0.3?
Result: Criterion not met

Problem: Is it the case that GCAACGCCATGGACCGGTTTTCCCGGTAATCCGTATTTGTA (site GCGACGCCTTA) has recombinant UMI read abundance (log10) reaching or exceeding 0.3?
Result: Criterion not met

Problem: Is it the case that ACATCTACATGGACCGGTTTTCCCGGTAATCCGTATTTGTC (site ACATCTACTAA) has recombinant UMI read abundance (log10) reaching or exceeding 0.3?
Result: Criterion not met

Problem: Is it the case that AATGTGTCATGGACCGGTTTTCCCGGTAATCCGTATTTGAA (site AATGTGTCTTT) has recombinant UMI read abundance (log10) reaching or exceeding 0.3?
Result: Criterion met

Problem: Is it the case that CAAATCCCATGGACCGGTTTTCCCGGTAATCCGTATTTGGA (site CAAATCCCTTC) has recombinant UMI read abundance (log10) reaching or exceeding 0.3?
Result: Criterion met

Problem: Is it the case that AAGGATCCATGGACCGGTTTTCCCGGTAATCCGTATTTGGT (site AAGGATCCTAC) has recombinant UMI read abundance (log10) reaching or exceeding 0.3?
Result: Criterion met

Problem: Is it the case that TGCAATTCATGGACCGGTTTTCCCGGTAATCCGTATTTGCC (site TGCAATTCTGG) has recombinant UMI read abundance (log10) reaching or exceeding 0.3?
Result: Criterion not met

Problem: Is it the case that GCATAGACATGGACCGGTTTTCCCGGTAATCCGTATTTGCC (site GTATAGACTGG) has recombinant UMI read abundance (log10) reaching or exceeding 0.3?
Result: Criterion not met

====

# Test Method Notes: recombinant UMI read abundance after kanamycin selection (control-corrected) (log10(CPM+1)); higher = more efficient recombination; extreme values may be limits of the assay; sequences stand for … in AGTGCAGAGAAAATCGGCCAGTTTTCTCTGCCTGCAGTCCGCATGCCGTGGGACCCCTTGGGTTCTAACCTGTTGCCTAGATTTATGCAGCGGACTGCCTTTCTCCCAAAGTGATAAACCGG…AGGTTGGTTTCACT; site = the 11-nt donor
Measured Parameter: recombinant UMI read abundance (log10)

Problem: Please report the recorded recombinant UMI read abundance (log10) for TAGCGTACATGGACCGGTTTTCCCGGTAATCCGTATTTGTA (site TAGCGTACTTA) .
Result: 1.2

Problem: Please report the recorded recombinant UMI read abundance (log10) for GGATCATCATGGACCGGTTTTCCCGGTAATCCGTATTTGCC (site CGATCATCTAG) .
Result: 0

Problem: Please report the recorded recombinant UMI read abundance (log10) for GTCTAAACATGGACCGGTTTTCCCGGTAATCCGTATTTGTG (site GTCTAAACTCA) .
Result: 1.09

Problem: Please report the recorded recombinant UMI read abundance (log10) for GTAGTCGCATGGACCGGTTTTCCCGGTAATCCGTATTTGCG (site GTAGTCGCTTG) .
Result: 1.95

Problem: Please report the recorded recombinant UMI read abundance (log10) for ATCCCGGCATGGACCGGTTTTCCCGGTAATCCGTATTTGAG (site CGAAGCCCTAG) .
Result: 0

Source of measurements: the supplement of paper PMC11208160
